- ASSAY_PROCEDURE: Miscibility of amikacin sulfate with ethanol/water
- Format: physicochemical
- CONDITION_DETAILS: ethanol/water mixture, aqueous with cosolvent or surfactant or cyclodextrin, 27% ethanol; depending on temperature; read-out: amikacin soluble concentration
REPORTED_PROPERTY: solubility

COMPOUND | OBSERVED_VALUE
NCC[C@H](O)C(=O)N[C@@H]1C[C@H](N)[C@@H](O[C@H]2O[C@H](CN)[C@@H](O)[C@H](O)[C@H]2O)[C@H](O)[C@H]1O[C@H]1O[C@H](CO)[C@@H](O)[C@H](N)[C@H]1O [amikacin] | ≥ 15 mg/mL

###

- ASSAY_PROCEDURE: Miscibility of amikacin sulfate with ethanol/water
- Format: physicochemical
- CONDITION_DETAILS: ethanol/water mixture, aqueous with cosolvent or surfactant or cyclodextrin, 34% ethanol; read-out: solubility limit
REPORTED_PROPERTY: solubility

SMILES_STRING | OBSERVED_VALUE
NCC[C@H](O)C(=O)N[C@@H]1C[C@H](N)[C@@H](O[C@H]2O[C@H](CN)[C@@H](O)[C@H](O)[C@H]2O)[C@H](O)[C@H]1O[C@H]1O[C@H](CO)[C@@H](O)[C@H](N)[C@H]1O | < 15 mg/mL
